Target: recombinant soluble homotrimeric HA of A/Egypt/3300-NAMRU3/08 (H5N1) (Influenza A virus A/Egypt/3300-NAMRU3/2008(H5N1))
Experiment: trimeric HA microarray, transfection supernatant set 5
Conditions: remark: other sources report otherwise
Record condition met whenever Trimeric HA Binding: RLU is at 20000 RLU or higher; record condition not met when lower.

{"binder": "TCN-538 (3206_O17) (antibody, V domains shown) VH: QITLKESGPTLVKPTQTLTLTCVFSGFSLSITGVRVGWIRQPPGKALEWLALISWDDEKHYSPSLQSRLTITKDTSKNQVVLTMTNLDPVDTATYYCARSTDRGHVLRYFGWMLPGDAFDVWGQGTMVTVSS VL: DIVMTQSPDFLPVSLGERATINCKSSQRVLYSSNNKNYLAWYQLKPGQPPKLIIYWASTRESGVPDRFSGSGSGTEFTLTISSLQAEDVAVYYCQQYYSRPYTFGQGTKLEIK", "class": "condition met"}
{"binder": "TCN-546 (5089_L08) (antibody, V domains shown) VH: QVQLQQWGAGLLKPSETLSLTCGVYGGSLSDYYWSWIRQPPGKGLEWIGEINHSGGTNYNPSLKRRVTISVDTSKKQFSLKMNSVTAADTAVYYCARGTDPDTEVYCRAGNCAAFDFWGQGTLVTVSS VL: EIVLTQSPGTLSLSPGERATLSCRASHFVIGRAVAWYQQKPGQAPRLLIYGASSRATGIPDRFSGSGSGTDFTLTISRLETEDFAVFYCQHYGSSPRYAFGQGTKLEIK", "class": "condition met"}
{"binder": "TCN-540 (5060_F05) (antibody, V domains shown) VH: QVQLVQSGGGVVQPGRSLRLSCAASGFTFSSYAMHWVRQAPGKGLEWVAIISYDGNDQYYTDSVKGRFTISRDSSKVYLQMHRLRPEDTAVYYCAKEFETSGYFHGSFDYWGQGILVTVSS VL: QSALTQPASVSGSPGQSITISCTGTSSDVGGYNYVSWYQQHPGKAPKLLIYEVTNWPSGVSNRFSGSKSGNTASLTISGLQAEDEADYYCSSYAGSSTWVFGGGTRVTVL", "class": "condition not met"}
{"binder": "TCN-537 (3194_D21) (antibody, V domains shown) VH: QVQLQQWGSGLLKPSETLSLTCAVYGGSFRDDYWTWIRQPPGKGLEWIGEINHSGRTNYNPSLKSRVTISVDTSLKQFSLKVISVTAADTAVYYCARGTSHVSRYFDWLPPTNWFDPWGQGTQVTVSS VL: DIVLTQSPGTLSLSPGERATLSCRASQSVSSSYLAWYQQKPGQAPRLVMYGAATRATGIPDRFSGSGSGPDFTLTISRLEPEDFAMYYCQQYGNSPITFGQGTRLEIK", "class": "condition met"}
{"binder": "TCN-543 (5081_G23) (antibody, V domains shown) VH: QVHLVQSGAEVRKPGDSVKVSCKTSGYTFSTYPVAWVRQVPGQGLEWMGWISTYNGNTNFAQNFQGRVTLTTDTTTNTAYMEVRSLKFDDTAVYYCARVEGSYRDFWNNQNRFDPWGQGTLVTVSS VL: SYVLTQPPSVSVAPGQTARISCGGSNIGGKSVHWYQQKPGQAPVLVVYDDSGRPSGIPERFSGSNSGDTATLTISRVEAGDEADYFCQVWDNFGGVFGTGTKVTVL", "class": "condition not met"}
{"binder": "TCN-542 (5079_A16) (antibody, V domains shown) VH: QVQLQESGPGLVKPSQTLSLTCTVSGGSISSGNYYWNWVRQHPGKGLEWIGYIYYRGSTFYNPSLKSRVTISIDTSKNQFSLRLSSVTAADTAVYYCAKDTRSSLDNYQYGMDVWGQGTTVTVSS VL: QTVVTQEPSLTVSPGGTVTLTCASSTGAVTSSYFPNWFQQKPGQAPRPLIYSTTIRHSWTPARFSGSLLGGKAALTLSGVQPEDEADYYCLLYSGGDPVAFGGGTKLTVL", "class": "condition not met"}
